- System: Yap1 mRNA
- Assay name: Dose-dependent inhibition of human Yap1 in A-431 cells (Example 8, 10,000 cells per well, RTS4814)
- Assay type: cell-based
- Measurement context: 31.3 nM; A-431 cells, 10,000 cells per well, free uptake, approximately 48 hours, RTS4814
Strand notation (5' to 3'): a small letter for the sugar, then the base; units joined by * are phosphorothioate-linked, units joined directly phosphodiester-linked; [ ] holds rarer units or linkages, { } end groups; capitals alone tell only the bases. k = constrained ethyl (cEt); [5mC] = 5-methylcytosine; d = 2'-deoxy (DNA)

{"Substance": "1075233 (kG*kT*kA*dA*dT*dT*dT*dA*dT*d[5mC]*dA*dG*d[5mC]*k[5mC]*kA*kT; antisense) [compound 1075233]", "Yap1 mRNA, % UTC, % UTC": 45}
{"Substance": "1075111 (kT*kA*kG*dG*dA*dA*dT*dA*dT*dG*dG*dG*dT*kA*kG*kT; antisense) [compound 1075111]", "Yap1 mRNA, % UTC, % UTC": 42}
{"Substance": "1074638 (antisense kA*kG*kA*dT*dT*dT*dT*dG*dT*dA*dA*dT*dT*kG*kG*kG) [compound 1074638]", "Yap1 mRNA, % UTC, % UTC": 14}
{"Substance": "1076396 (antisense k[5mC]*kT*kA*dT*dA*dT*dT*dT*dG*dA*dG*d[5mC]*d[5mC]*kA*kT*kG) [compound 1076396]", "Yap1 mRNA, % UTC, % UTC": 64}
{"Substance": "1075813 (kA*k[5mC]*kT*dA*dA*dT*dA*dT*dG*d[5mC]*dA*dA*d[5mC]*kT*k[5mC]*kT; antisense) [compound 1075813]", "Yap1 mRNA, % UTC, % UTC": 57}
{"Substance": "1074368 (kG*kA*kT*dA*dG*dT*dA*dT*d[5mC]*dA*d[5mC]*d[5mC]*dT*kG*kT*kA; antisense) [compound 1074368]", "Yap1 mRNA, % UTC, % UTC": 67}

* * *

- Tested on: Yap1 mRNA
- Assay name: Dose-dependent inhibition of human Yap1 in A-431 cells (Example 8, 10,000 cells per well, RTS4814)
- Type: cell-based
- Measurement context: 125.0 nM; A-431 cells, 10,000 cells per well, free uptake, approximately 48 hours, RTS4814
- Description: Modified oligonucleotides described in the studies above were tested at various doses in A-431 cells. […] After approximately 48 hours, Yap1 mRNA levels were measured as previously described using the Human Yap1 primer-probe set RTS4814. Yap1 mRNA levels were normalized to total RNA content, as measured by RIBOGREEN®. […] IC50s were calculated using a linear regression on a log/linear plot of the data in excel.
Strand notation (5' to 3'): a small letter for the sugar, then the base; units joined by * are phosphorothioate-linked, units joined directly phosphodiester-linked; [ ] holds rarer units or linkages, { } end groups; capitals alone tell only the bases. k = constrained ethyl (cEt); [5mC] = 5-methylcytosine; d = 2'-deoxy (DNA)

{"Substance": "1076449 (k[5mC]*k[5mC]*kT*dT*dA*dT*dA*dA*dT*dG*d[5mC]*dA*dA*kT*k[5mC]*k[5mC]; antisense) [compound 1076449]", "Result units": "% UTC", "Yap1 mRNA, % UTC": 8}
{"Substance": "1075792 (kG*kA*kT*dT*dA*dG*dA*dA*dA*dG*dT*dG*d[5mC]*k[5mC]*kT*kT; antisense) [compound 1075792]", "Result units": "% UTC", "Yap1 mRNA, % UTC": 41}
{"Substance": "1074563 (DNA kT*kG*kA*dA*dT*dT*d[5mC]*d[5mC]*dA*dA*dT*d[5mC]*dG*kA*kG*kA; antisense) [compound 1074563]", "Result units": "% UTC", "Yap1 mRNA, % UTC": 31}
{"Substance": "1075052 (antisense kA*kT*kA*dT*dA*dT*dA*d[5mC]*dT*dT*dG*dA*dT*k[5mC]*k[5mC]*kA) [compound 1075052]", "Result units": "% UTC", "Yap1 mRNA, % UTC": 10}
{"Substance": "1076453 (GTAATATTGCAATCTG; 3-10-3 cEt gapmer, further chemistry not given here) [compound 1076453]", "Result units": "% UTC", "Yap1 mRNA, % UTC": 2}
{"Substance": "1074577 (DNA kT*kA*kT*dT*dT*d[5mC]*dT*dG*dT*d[5mC]*dA*dT*dG*k[5mC]*kA*k[5mC]) [compound 1074577]", "Result units": "% UTC", "Yap1 mRNA, % UTC": 10}

* * *

- System: Yap1 mRNA
- Assay name: Dose-dependent inhibition of human Yap1 in SNU-449 cells (Example 9, RTS36584)
- Format: cell-based
- Measurement context: free uptake, linear regression on a log/linear plot
Strand notation (5' to 3'): a small letter for the sugar, then the base; units joined by * are phosphorothioate-linked, units joined directly phosphodiester-linked; [ ] holds rarer units or linkages, { } end groups; capitals alone tell only the bases. e = 2'-O-(2-methoxyethyl) (MOE); k = constrained ethyl (cEt); [5mC] = 5-methylcytosine; d = 2'-deoxy (DNA); m = 2'-O-methyl
Here the recorded IC50 is given for each entry.

{"Substance": "1198212 (kT*kA*dT*dT*dA*dG*dA*dG*dT*dA*dT*eG*eT*eG*kG*k[5mC]) [compound 1198212]", "Op": "=", "IC50 / µM": 0.1}
{"Substance": "1198872 (TGTATGTCAGAAGAGT; chemically modified gapmer, further chemistry not given here) [compound 1198872]", "Op": "<", "IC50 / µM": 0.03}
{"Substance": "1198526 (kA*kA*dG*dT*dG*dT*dA*dT*dG*dT*d[5mC]*eA*kG*eA*kA*eG; antisense) [compound 1198526]", "Op": "=", "IC50 / µM": 0.04}
{"Substance": "1198614 (kT*kA*kA*dA*dG*dT*dG*dT*dA*dT*dG*dT*k[5mC]*kA*kG*eA; antisense) [compound 1198614]", "Op": "=", "IC50 / µM": 0.1}
{"Substance": "1009325 (kA*kG*kA*dG*dT*dA*dT*dG*dT*dG*dG*d[5mC]*dA*kA*kT*kA; antisense) [compound 1009325]", "Op": "=", "IC50 / µM": 0.1}
{"Substance": "1198918 (kG*k[5mC]*dA*d[5mC]*dT*dT*dT*dT*dA*d[5mC]*dA*kT*dT*kA*dG*kG) [compound 1198918]", "Op": "=", "IC50 / µM": 0.05}
{"Substance": "1200861 (kT*kT*kA*dA*dA*mG*dT*dG*dT*dA*dT*dG*dT*k[5mC]*kA*kG; antisense) [compound 1200861]", "Op": "=", "IC50 / µM": 0.1}

* * *

- Test system: Yap1 mRNA
- Assay name: Dose-dependent inhibition of human Yap1 in A-431 cells (Example 8, 10,000 cells per well, RTS4814)
- Assay type: cell-based
- Measurement context: 125.0 nM; A-431 cells, 10,000 cells per well, free uptake, approximately 48 hours, RTS4814
Strand notation (5' to 3'): a small letter for the sugar, then the base; units joined by * are phosphorothioate-linked, units joined directly phosphodiester-linked; [ ] holds rarer units or linkages, { } end groups; capitals alone tell only the bases. k = constrained ethyl (cEt); [5mC] = 5-methylcytosine; d = 2'-deoxy (DNA)

{"Substance": "1076523 (kA*kT*kT*dT*dA*dT*dA*dT*d[5mC]*dA*dG*dG*dT*k[5mC]*kA*kA; antisense) [compound 1076523]", "Yap1 mRNA, % UTC [% UTC]": 38}
{"Substance": "1074638 (antisense kA*kG*kA*dT*dT*dT*dT*dG*dT*dA*dA*dT*dT*kG*kG*kG) [compound 1074638]", "Yap1 mRNA, % UTC [% UTC]": 4}
{"Substance": "1074508 (kG*kA*kG*dA*dG*dA*dG*d[5mC]*dA*dG*dA*dT*dA*kA*kT*k[5mC]; antisense) [compound 1074508]", "Yap1 mRNA, % UTC [% UTC]": 30}
{"Substance": "1075112 (kA*kT*kA*dT*dA*dG*dG*dA*dA*dT*dA*dT*dG*kG*kG*kT; antisense) [compound 1075112]", "Yap1 mRNA, % UTC [% UTC]": 36}
{"Substance": "1075084 (antisense kT*kG*kA*d[5mC]*dA*dA*d[5mC]*dA*dA*d[5mC]*dA*d[5mC]*dT*k[5mC]*k[5mC]*kT) [compound 1075084]", "Yap1 mRNA, % UTC [% UTC]": 72}
{"Substance": "1075757 (k[5mC]*kT*kT*dA*dA*dT*dA*d[5mC]*dA*dT*dT*dA*dT*kT*k[5mC]*k[5mC]; antisense) [compound 1075757]", "Yap1 mRNA, % UTC [% UTC]": 14}
{"Substance": "1075968 (kT*kA*kT*dT*dT*dA*dA*dG*d[5mC]*d[5mC]*dA*dA*dA*k[5mC]*k[5mC]*kG; antisense) [compound 1075968]", "Yap1 mRNA, % UTC [% UTC]": 37}
{"Substance": "1074509 (kT*kG*kT*dT*dA*dT*dG*dT*dT*dT*dG*dG*dG*kT*kG*kT; antisense) [compound 1074509]", "Yap1 mRNA, % UTC [% UTC]": 12}
{"Substance": "1076291 (kG*kA*kT*dT*dA*dA*dT*dG*dG*dT*dG*dG*d[5mC]*kA*kT*kT; antisense) [compound 1076291]", "Yap1 mRNA, % UTC [% UTC]": 26}
{"Substance": "1076077 (kG*kG*kA*dT*dT*dA*dA*dA*dG*dT*dT*dT*dT*k[5mC]*kA*k[5mC]; antisense) [compound 1076077]", "Yap1 mRNA, % UTC [% UTC]": 19}
{"Substance": "1076460 (kT*kA*kA*dT*dA*dT*dA*dG*d[5mC]*d[5mC]*d[5mC]*d[5mC]*dT*kT*k[5mC]*kA; antisense) [compound 1076460]", "Yap1 mRNA, % UTC [% UTC]": 53}
{"Substance": "1076393 (antisense k[5mC]*kT*kT*dT*dA*d[5mC]*dT*dT*dA*d[5mC]*dT*dG*dG*kT*kG*kG) [compound 1076393]", "Yap1 mRNA, % UTC [% UTC]": 20}
{"Substance": "1074560 (DNA k[5mC]*k[5mC]*kA*dA*dT*d[5mC]*dG*dA*dG*dA*d[5mC]*dT*dT*kA*kA*kA) [compound 1074560]", "Yap1 mRNA, % UTC [% UTC]": 16}
